Could you please report measured Plant response rating, Blackgrass for the items listed next?
# Tested on: blackgrass
# ASSAY_REMARKS: Test B pre/postemergence blackgrass
# Assay type: in vivo, Alopecurus myosuroides
# CONDITION_PARAMETERS: Preemergence, Rate 250 g/ha; scale of 0 to 10 where 0 is no effect and 10 is complete control
Answers are plain numbers.

For orientation, consider the following solved cases.
[[record]]
query_smiles = "Cc1ccccc1-n1c(=O)on(C(=O)N(c2ccc(Cl)cc2)C(C)C)c1=O"
recorded_measurement = 2

[[record]]
query_smiles = "Cc1nn(C)c(C)c1-n1c(=O)on(C(=O)N(c2ccccc2)C(C)C)c1=O"
recorded_measurement = 7


In the following, a different compound is considered.
Prompt line: Identify Plant response rating, Blackgrass associated with the compound CCN(C(=O)n1oc(=O)n(-c2ccc(C)cc2C)c1=O)C1CCCCC1
Response line: 0

---

# Tested on: giant foxtail
# ASSAY_REMARKS: Test B pre/postemergence giant foxtail
# Assay type: in vivo, Setaria faberii
# CONDITION_PARAMETERS: Preemergence, Rate 62 g/ha; scale of 0 to 10 where 0 is no effect and 10 is complete control
Could you please report measured Plant response rating, Giant foxtail for the items listed next?
Answers are plain numbers.

[[record]]
compound = "CCOC(=O)C=C(Cn1c(=O)on(C(=O)N(c2ccc(F)cc2F)C(C)C)c1=O)OCC"
readout = "Plant response rating, Giant foxtail"
recorded_measurement = 10

[[record]]
compound = "C=CCCCn1c(=O)on(C(=O)N(c2ccc(F)cc2F)C(C)C)c1=O"
readout = "Plant response rating, Giant foxtail"
recorded_measurement = 10

[[record]]
compound = "CC(C)N(C(=O)n1oc(=O)n(CCc2ccccc2)c1=O)c1ccc(F)cc1F"
readout = "Plant response rating, Giant foxtail"
recorded_measurement = 10

[[record]]
compound = "COCC(OC)n1c(=O)on(C(=O)N(c2ccc(F)cc2)C(C)C)c1=O (centres unmarked)"
readout = "Plant response rating, Giant foxtail"
recorded_measurement = 9


In the following, a different compound is considered.
Prompt line: Identify Plant response rating, Giant foxtail associated with the compound CC(C)N(C(=O)n1oc(=O)n(C(C)C(=O)N(C)C)c1=O)c1ccc(Cl)cc1 (centres unmarked)
Response line: 10

---

# Test system: giant foxtail
# ASSAY_REMARKS: Test B pre/postemergence giant foxtail
# Assay type: in vivo, Setaria faberii
# CONDITION_PARAMETERS: Postemergence, Rate 250 g/ha; scale 0 to 10, 0 no effect, 10 complete control
Could you please report measured Giant foxtail plant response rating for the items listed next?

[[record]]
compound = "CCN(CC)C(=O)n1oc(=O)n(-c2cccc3c2CCCC3)c1=O [Compound 89]"
recorded_measurement = 0


For every item in the list below, what is its measured Giant foxtail plant response rating?
1. Cc1cccc(C)c1-n1c(=O)on(C(=O)N(c2ccccc2)C(C)C)c1=O [Compound 46]
2. CC(C)N(C(=O)n1oc(=O)n(C2CCCCC2C(F)(F)F)c1=O)c1ccc(F)cc1 (stereo not shown) [Compound 99]
3. Cc1ccccc1-n1c(=O)on(C(=O)N(C2=CCOCC2)C(C)C)c1=O [Compound 10]
4. Cc1nn(C)c(C)c1-n1c(=O)on(C(=O)N(c2ccccc2)C(C)C)c1=O [Compound 120]
5. CC(C)N(C(=O)n1oc(=O)n(Cc2cccs2)c1=O)c1ccccc1 [Compound 103]

Response line:
[1, 2, 8, 8, 3]

For every item in the list below, what is its measured Giant foxtail plant response rating?
1. CCCn1c(=O)on(C(=O)N(c2ccc(Cl)cc2)C(C)C)c1=O [Compound 119]
2. CC(C)Oc1cc(-n2c(=O)on(C(=O)N(c3ccc(F)cc3)C(C)C)c2=O)c(Cl)cc1Cl [Compound 43]
3. CC(C)N(C(=O)n1oc(=O)n(-c2cc(Cl)cc(Cl)c2)c1=O)C1=CCOCC1 [Compound 9]
4. COc1ccc(-n2c(=O)on(C(=O)N(c3ccc(F)cc3)C(C)C)c2=O)c(C)c1 [Compound 35]

Response line:
1: 8; 2: 0; 3: 0; 4: 1

---

# Tested on: surinam grass
# ASSAY_REMARKS: Test B pre/postemergence surinam grass
# Type: in vivo, Brachiaria decumbens
# CONDITION_PARAMETERS: Preemergence, Rate 125 g/ha; scale 0 to 10 (0 no effect, 10 complete control)
Could you please report measured Plant response rating, B. signalgrass for the items listed next?
Numbers only.

For orientation, consider the following solved cases.
[[record]]
query_smiles = "CCN(C(=O)n1oc(=O)n(-c2ccc(C)cc2C)c1=O)C1CCCCC1"
target_system = "surinam grass"
readout = "Plant response rating, B. signalgrass"
recorded_measurement = 0

[[record]]
query_smiles = "Cc1ccccc1-n1c(=O)on(C(=O)N(c2ccc(F)cc2)C(C)C)c1=O"
target_system = "surinam grass"
readout = "Plant response rating, B. signalgrass"
recorded_measurement = 7


In the following, a different compound is considered.
Prompt line: Identify Plant response rating, B. signalgrass associated with the compound Cc1ccccc1-n1c(=O)on(C(=O)N(C2=CCOCC2)C(C)C)c1=O
Response line: 5

---

Could you please report measured Plant response rating, Goosegrass for the items listed next?
# Tested on: goosegrass
# ASSAY_REMARKS: Test D goosegrass
# Format: in vivo, Eleusine indica
# CONDITION_PARAMETERS: Rate 16 g/ha; Preemergence; 0 to 100 scale, 0 no injury, 100 complete control
# From the text: […] Test chemicals were formulated in a non-phytotoxic solvent mixture which included a surfactant and applied preemergence to the surface of the pot containing seeds in a sandy loam soil. Untreated control pots and treated pots were placed in the greenhouse for growth and visually evaluated for injury 14 to 21 days after herbicide application. […]
One number for each entry.

For orientation, consider the following solved cases.
[[record]]
query_smiles = "C=CCn1c(=O)on(C(=O)N(c2ccccc2)C(C)C)c1=O"
target_system = "goosegrass"
recorded_measurement = 65

[[record]]
query_smiles = "CCCn1c(=O)on(C(=O)N(c2ccc(Cl)cc2)C(C)C)c1=O"
target_system = "goosegrass"
recorded_measurement = 30

[[record]]
query_smiles = "Cc1ccccc1-n1c(=O)on(C(=O)N(c2ccc(F)cc2)C(C)C)c1=O"
target_system = "goosegrass"
recorded_measurement = 70


In the following, a different molecule is considered.
Prompt line: Identify Plant response rating, Goosegrass associated with the molecule CC(C)N(C(=O)n1oc(=O)n(Cc2cccs2)c1=O)c1ccccc1
Response line: 0

---

Could you please report measured Plant response rating, Redroot pigweed for the items listed next?
# System: pigweed
# ASSAY_REMARKS: Test B pre/postemergence pigweed
# Assay type: in vivo, Amaranthus retroflexus
# CONDITION_PARAMETERS: Preemergence, Rate 125 g/ha; scale 0 to 10 (0 no effect, 10 complete control)

For orientation, consider the following solved cases.
[[record]]
molecule = "CCN(C(=O)n1oc(=O)n(-c2ccc(C)cc2C)c1=O)C1CCCCC1 [Compound 26]"
recorded_measurement = 0

[[record]]
molecule = "COc1ccc(-n2c(=O)on(C(=O)N(C3=CCOCC3)C(C)C)c2=O)cc1 [Compound 6]"
recorded_measurement = 5

[[record]]
molecule = "Cc1nn(C)c(C)c1-n1c(=O)on(C(=O)N(c2ccccc2)C(C)C)c1=O [Compound 120]"
recorded_measurement = 8


Prompt line: Identify Plant response rating, Redroot pigweed associated with the molecule CC(C)Oc1cc(-n2c(=O)on(C(=O)N(c3ccc(F)cc3)C(C)C)c2=O)c(Cl)cc1Cl [Compound 43]
Response line: 0

---

# Test system: winter wheat
# ASSAY_REMARKS: Test E winter wheat
# Assay type: in vivo, Triticum aestivum
# CONDITION_PARAMETERS: Rate 250 g/ha, Postemergence; 0 to 100 scale where 0 is no effect and 100 is complete control
READOUT: Wheat (winter) plant response rating
Answers are plain numbers.

For orientation, consider the following solved cases.
[[record]]
query_smiles = "CC(C)N(C(=O)n1oc(=O)n(CCC(F)=C(F)F)c1=O)c1ccc(F)cc1"
recorded_measurement = 70

[[record]]
query_smiles = "CC(C)=CCn1c(=O)on(C(=O)N(c2ccc(F)cc2)C(C)C)c1=O"
recorded_measurement = 35

[[record]]
query_smiles = "CC(C)Cn1c(=O)on(C(=O)N(c2ccc(F)cc2)C(C)C)c1=O"
recorded_measurement = 40


In the following, a different molecule is considered.
Prompt line: Identify Wheat (winter) plant response rating associated with the molecule CC(C)N(C(=O)n1oc(=O)n(CCCF)c1=O)c1ccc(F)cc1
Response line: 50

---

# Tested on: pigweed
# ASSAY_REMARKS: Test B pre/postemergence pigweed
# Format: in vivo, Amaranthus retroflexus
# CONDITION_PARAMETERS: Rate 125 g/ha, Postemergence; scale of 0 to 10 where 0 is no effect and 10 is complete control
Could you please report measured Redroot pigweed plant response rating for the items listed next?
One number for each entry.

[[record]]
compound = "CC(C)N(C(=O)n1oc(=O)n(C2CCCC2)c1=O)c1ccc(F)cc1F [Compound 284]"
readout = "Redroot pigweed plant response rating"
recorded_measurement = 4

[[record]]
compound = "CC(C)=CCn1c(=O)on(C(=O)N(c2ccc(F)cc2)C(C)C)c1=O [Compound 288]"
readout = "Redroot pigweed plant response rating"
recorded_measurement = 0

[[record]]
compound = "C=CCn1c(=O)on(C(=O)N(c2ccc(F)cc2)C(C)C(=O)OCC)c1=O (stereo not shown) [Compound 279]"
readout = "Redroot pigweed plant response rating"
recorded_measurement = 0


In the following, a different compound is considered.
Prompt line: Identify Redroot pigweed plant response rating associated with the compound CC(C)N(C(=O)n1oc(=O)n(CCCN(C)C)c1=O)c1ccc(F)cc1 [Compound 323]
Response line: 0
